assayProtocol: qHTS profiling of the MIPE4 collection as inhibitors of Plasmodium falciparum (3D7) proliferation (AID 743344);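 further: scaled between DMSO vehicle wells and 0.29 µM artemisinin as full inhibition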
testParameters: P. falciparum 3D7 in erythrocytes, SYBR Green DNA fluorescence, 72 h; at 28.5 µM unless noted
Exercise: for every item that follows, state its recorded parasite growth, % of DMSO control.
Please give a number only; it is taken to be in % [at 9.64 µM].

Consider `O=C(O)c1nc(=O)[nH]c(=O)[nH]1` . Its measured parasite growth, % of DMSO control is 88.8

Memo: `Cc1cnc(CNC(=O)c2c(=O)c3ccc(N4CCCN(C)CC4)nc3n3c2sc2ccccc23)cn1` , reported parasite growth, % of DMSO control: 6.1

----------
Tested on: MKL-2
assayProtocol: qHTS assay to identify novel small-molecules to repurpose for Merkel cell carcinoma treatment (AID 1296009); further: nearly all actives have a fitted effect of over 60% in size
testParameters: MCC and control cell lines, CellTiter-Glo viability, 72 h; series mostly up to 46 µM
Inconclusive results are not listed. Activity calls are given as the source filed them. Calls come from the whole dose curve; as a rule, active = well fitted inhibition curve with a large enough effect; inconclusive = small, poorly fitted or top-dose-only effect; inactive = flat fitted curve, though single readings scatter.
Select the correct class. Options are active, inactive and nothing else.

Kindly provide the recorded test outcome for the following compound: Nc1ncnc2c1c(-c1cccc(OCc3ccccc3)c1)cn2C1CC(CN2CCC2)C1 (stereo unspecified)
inactive

Please state the recorded outcome for this compound: `COc1c(C)c2c(c(O)c1CC=C(C)CCC(=O)OCCN1CCOCC1)C(=O)OC2`
active

Kindly provide the recorded test outcome for the following compound: `N#CC(=C1Nc2ccccc2S1)c1ccnc(OCc2ccc(CN3CCOCC3)cc2)n1`
active

State the result this test recorded for `CNC(=O)c1cc(Oc2ccc(NC(=O)Nc3ccc(Cl)c(C(F)(F)F)c3)c(F)c2)ccn1` .
active

# fetch the recorded call for `CC(C)N(CCCNC(=O)Nc1ccc(C(C)(C)C)cc1)C[C@H]1O[C@@H](n2cc(Br)c3c(N)ncnc32)[C@H](O)[C@H]1O` here
inactive

How did this test come out for CCCCN(CCCC)CC(O)c1cc(Cl)cc2c1-c1ccc(Cl)cc1C2=Cc1ccc(Cl)cc1 (stereo unspecified) ?
inactive

Dear all, I need the recorded test outcome for `CC(=O)N1CCN(c2ccc(OCc3nn(C)c(C)c3-c3cccc4c(CCCOc5cc(C)c(Cl)c(C)c5)c(C(=O)O)n(Cc5cccnc5)c34)cc2)CC1` , thank you.
active

Test call for this compound, please: `Fc1ccc(CNc2ncnc3ccc(F)cc23)cc1`
inactive

Called result for `CC(C)(CO)[C@@H](O)C(=O)NCCC(=O)O`
inactive

I'd appreciate the recorded outcome for `Cc1ccc(S(=O)(=O)Nc2nc3ccccc3nc2Nc2ccc3nsnc3c2)cc1` from this test.
inactive

# fetch the recorded call for `Cc1ccc2c(=O)c3cccc(CC(=O)O)c3oc2c1C` here
inactive

Called result for `O=C(O)Cc1cccc(OCCCN(Cc2cccc(C(F)(F)F)c2Cl)CC(c2ccccc2)c2ccccc2)c1`
inactive

Please state the recorded outcome for this compound: Cc1cc(C(C)Nc2ccccc2)c2nc(N3CCOCC3)cc(=O)n2c1 (stereo unspecified)
inactive

Hi team, can someone confirm the assay call for OC1CCC(Nc2ncc3nc(Nc4c(F)cc(F)cc4F)n([C@@H]4CCOC4)c3n2)CC1 (stereo partly specified) ?
inactive

For `COc1cc2c(cc1Cc1cccc(Cl)c1F)c(=O)c(C(=O)O)cn2[C@H](CO)C(C)C` , what call appears in the results of this test?
active

Dear all, I need the recorded test outcome for `Cc1cccc(Nc2nc(N[C@@H]3CCCC[C@H]3N)ncc2C(N)=O)c1` , thank you.
inactive

Any idea what this test logged for `OC[C@H]1O[C@@H](Oc2ccc(O)cc2)[C@H](O)[C@@H](O)[C@H]1O` ?
inactive

Record lookup: outcome of this test for `Cn1c(=O)c(-c2c(Cl)cccc2Cl)cc2cnc(Nc3cccc(C(=O)O)c3)nc21` ?
inactive

For `O=S(=O)(NCCNCC=Cc1ccc(Br)cc1)c1cccc2cnccc12` , which call appears in the assay record?
active

I'd appreciate the recorded outcome for `CC(C)(C)c1[nH]cnc1C=c1[nH]c(=O)c(=Cc2ccccc2)[nH]c1=O` from this test.
active

Recorded test call requested for `CCC[C@H](Nc1nc(-c2ccc(NC(=O)NCC)c(OC)c2)ncc1C)c1cccnc1`
active

Tell me the assay call for `O=[N+]([O-])c1ccc(Nc2ccccc2-c2ccccc2)c2nonc12` please.
inactive

Entry `CCc1cccc(CC)c1NC(=O)N1Cc2[nH]nc(NC(=O)c3ccc(N4CCN(C)CC4)cc3)c2C1` : call = ?
inactive

GET /call?item= `Cc1cc2c(cc1C1(c3ccc(C(=O)O)cn3)CC1)C(C)(C)CCC2(C)C` returns the recorded outcome of this test.
inactive

Could you kindly confirm the outcome this assay logged for `CCOc1ccccc1N=Nc1c(C)[nH]n(-c2nc(-c3ccccc3)cs2)c1=O` ?
inactive

Each compound tested received a call. Report the one for `NC(=O)c1ccc(N(C(N)=O)c2c(F)cccc2F)nc1-c1ccc(F)cc1F` .
inactive

Attribution: PubChem BioAssay (NCATS)
